- System: MT-4 cells
- Procedure Summary: Viability assay in MT-4 cell cultures
- Format: cell-based, Human
Readout Type: CC50

Observe how each entry below is paired with its result.
>>> print(df.to_string())
                               smiles_input    result
0  Cc1cn([C@H]2C[C@H](N=[N+]=[N-])[C@@H](COC(=O)Cn3c(=O)ccn(CCCCCCCCCCOc4ccc(Br)cc4)c3=O)O2)c(=O)[nH]c1=O  > 100 µM
1  Cc1cn([C@H]2C[C@H](N=[N+]=[N-])[C@@H](COC(=O)Cn3c(=O)ccn(CCCOc4ccc(Br)cc4)c3=O)O2)c(=O)[nH]c1=O   82.1 µM
2  Cc1cn([C@H]2C[C@H](N=[N+]=[N-])[C@@H](COC(=O)Cn3c(=O)ccn(CCCCCCCCOc4ccc(Br)cc4)c3=O)O2)c(=O)[nH]c1=O  > 100 µM

Continue with the next compound.
[Q] I have this compound here, `Nc1ccn([C@@H]2CS[C@H](COC(=O)Cn3c(=O)ccn(CCCCCCOc4ccc(Br)cc4)c3=O)O2)c(=O)n1` , and I need its recorded CC50.
[A] > 100 µM

====

- Procedure Summary: Viability assay in MT-4 cell cultures
- Assay type: cell-based, Human
- Run Conditions: human, MT-4 cells
Readout Type: CC50 at 3 days

[Q] CC50 at 3 days for `O=C(O)Cn1c(=O)ccn(CCCCCCOc2ccc(Br)cc2)c1=O` ?
[A] > 100 µM

====

- Procedure Summary: Viability assay in WS1 cell cultures
- Type: cell-based, human
- Run Conditions: human, WS1 cells
Readout Type: CC50 at 3 days (µM)
Write down the numeric answer in µM and omit the unit.

# count of solved cases: 6
In [3]: df
Out[3]:
                                   compound  uom  numeric_value
0   O=C(O)Cn1c(=O)ccn(CCCOc2ccc(Br)cc2)c1=O   µM            965
1  O=C(O)Cn1c(=O)ccn(CCCCCCOc2ccc(Br)cc2)c1=O   µM            724
2  O=C(O)Cn1c(=O)ccn(CCCCCCCCOc2ccc(Br)cc2)c1=O   µM           90.5
3  Nc1nc(O)c2ncn(COC(CO)CO)c2n1 [GCV, ganciclovir, reference compound]   µM            500
4  O=C(O)Cn1c(=O)ccn(CCCCCOc2ccc(Br)cc2)c1=O   µM            749
5  O=C(O)Cn1c(=O)ccn(CCCCCCCCCCCCOc2ccc(Br)cc2)c1=O   µM             22

[Q] CC50 at 3 days lookup needed for `O=C(O)Cn1c(=O)ccn(CCCCCCCCCCOc2ccc(Br)cc2)c1=O` , thanks.
[A] 164

====

- System: MT-4 cells
- Procedure Summary: Viability assay in MT-4 cell cultures
- Assay type: cell-based, Human
Readout Type: CC50

Example entries and their recorded answers appear below.
                               smiles_input  tested_target    result
0  Cc1cn([C@H]2C[C@H](N=[N+]=[N-])[C@@H](COC(=O)Cn3c(=O)ccn(CCCCCCOc4ccc(Br)cc4)c3=O)O2)c(=O)[nH]c1=O     MT-4 cells  > 100 µM
1  Cc1cn([C@H]2C[C@H](N=[N+]=[N-])[C@@H](COC(=O)Cn3c(=O)ccn(CCCCCCCCCCCCOc4ccc(Br)cc4)c3=O)O2)c(=O)[nH]c1=O     MT-4 cells  > 100 µM

Switching to the query record.
[Q] Report CC50 for `Cc1cn([C@H]2C[C@H](N=[N+]=[N-])[C@@H](COC(=O)Cn3c(=O)ccn(CCCCCOc4ccc(Br)cc4)c3=O)O2)c(=O)[nH]c1=O` tested on MT-4 cells.
[A] > 100 µM

Origin of values: paper PMC8458242
